Data origin: the supplement of paper PMC12645437

Biological target: T1, CRBN, Q96SW2;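 note: pooled lentiviral library of zinc finger degron-EGFP fusions in mCherry-positive Jurkat cells, FACS-sorted after compound exposure, with degron abundance counted by next-generation sequencing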
T1 chain: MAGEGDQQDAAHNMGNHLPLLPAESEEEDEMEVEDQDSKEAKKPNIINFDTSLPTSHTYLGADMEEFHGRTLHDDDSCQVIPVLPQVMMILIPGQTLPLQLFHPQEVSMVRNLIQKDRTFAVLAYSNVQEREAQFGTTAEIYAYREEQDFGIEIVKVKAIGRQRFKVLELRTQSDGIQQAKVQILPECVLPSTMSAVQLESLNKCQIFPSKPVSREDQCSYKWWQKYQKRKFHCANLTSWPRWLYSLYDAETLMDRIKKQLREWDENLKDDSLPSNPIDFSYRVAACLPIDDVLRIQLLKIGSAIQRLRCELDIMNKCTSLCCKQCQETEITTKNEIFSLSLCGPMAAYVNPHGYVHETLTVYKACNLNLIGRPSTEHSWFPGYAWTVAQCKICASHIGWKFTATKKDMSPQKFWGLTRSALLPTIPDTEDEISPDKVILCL
Assay: log2 fold change of degron read counts, EGFP-low vs EGFP+ sorted cells (limma voom), compound-induced degradation; higher = more compound-induced degradation of the degron-EGFP fusion; degrons are variants of IKZF1/3 zinc finger 2; compound dose not given here
Conditions: Jurkat; 18 h; compound: compound 33 (diphenyl IMiD analogue)
The full ranking holds about 8,300 sequences; the median of “log2 fold change of degron read counts, EGFP-low vs EGFP+ sorted cells (limma voom), compound-induced degradation” is about -1.1, and the highest 2% start at about 3.2. For the sample, the highest values were picked, then their nearest neighbours and some sequences at random.
Each record here notes measured log2 fold change of degron read counts.
Respond using a number only.

Reference set (3 entries):
{"columns": ["ENTRY_SEQUENCE", "ENDPOINT_VALUE"],
 "data": [
  ["LACEICGFVCTQKGNLLRHIKL [46L_47A_49E_50I_52G_53F_54V_55C_67L_, Q9UKT9]", -0.215],
  ["FTCNQCGHTFTQKGNLLRHIKL [46F_47T_49N_50Q_52G_53H_54T_55F_67L_, Q9UKT9]", -3.66],
  ["FKCEVCGAHFTQKGNLLRHIKL [46F_47K_49E_50V_52G_53A_54H_55F_67L_, Q9UKT9]", -2.55]
]}

// next item, log2 fold change of degron read counts requested
The sequence LFCEICGFVCTQKGNLLRHIKL [46L_47F_49E_50I_52G_53F_54V_55C_67L_, Q9UKT9] showed log2 fold change of degron read counts equal to 1.38
